ASSAY SYSTEM: human histidine triad nucleotide binding protein 1 (hHint1) (Homo sapiens, UniProt P49773)
Sequence (P49773 2-126): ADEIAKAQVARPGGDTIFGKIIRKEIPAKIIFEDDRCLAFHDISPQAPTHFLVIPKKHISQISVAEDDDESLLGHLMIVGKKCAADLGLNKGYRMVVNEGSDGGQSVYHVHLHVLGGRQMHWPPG
pKi: −log10 of the molar value.
ENDPOINT NAME: pKi

MOLECULE	ASSAY SYSTEM	ENDPOINT NAME	RECORDED VALUE
Nc1ncnc2c1ncn2[C@@H]1O[C@H](COP(=O)(O)O)[C@@H](O)[C@H]1O [AMP]	human histidine triad nucleotide binding protein 1 (hHint1) (Homo sapiens, UniProt P49773)	pKi	~3.70
